Numbers sourced from patent US7652155B2.

- protocol-notes: Acute oral toxicity in mice
- test-settings: mouse, in vivo; male mice, single oral dose, observed for 7 days
# LD50 at 7 days values compiled below
recorded-endpoint: LD50 at 7 days

[[record]]
molecule = "Cc1c(C)c2c(c(CN)c1N)CCC(C)(C)O2 [Compound No. 2]"
recorded_endpoint = "LD50 at 7 days"
readout_value = "> 1000 mg/kg"

[[record]]
molecule = "Cc1c(C)c2c(c(C)c1N)CC(C)(CN1CCC(c3ccccc3)CC1)O2 (stereo not drawn) [Control Drug 2, reference compound]"
recorded_endpoint = "LD50 at 7 days"
readout_value = "< 300 mg/kg"

[[record]]
molecule = "Cc1c(C)c2c(c(CN)c1N)CC(C)(C)O2 [Compound No. 1]"
recorded_endpoint = "LD50 at 7 days"
readout_value = "> 1000 mg/kg"


----------
- target: 15-lipoxygenase (15-LO) (Oryctolagus cuniculus, UniProt P12530)
- Construct: 15-LO obtained from rabbit reticulocytes; from tissue; host or cells: rabbit reticulocytes
- Sequence (P12530 whole entry): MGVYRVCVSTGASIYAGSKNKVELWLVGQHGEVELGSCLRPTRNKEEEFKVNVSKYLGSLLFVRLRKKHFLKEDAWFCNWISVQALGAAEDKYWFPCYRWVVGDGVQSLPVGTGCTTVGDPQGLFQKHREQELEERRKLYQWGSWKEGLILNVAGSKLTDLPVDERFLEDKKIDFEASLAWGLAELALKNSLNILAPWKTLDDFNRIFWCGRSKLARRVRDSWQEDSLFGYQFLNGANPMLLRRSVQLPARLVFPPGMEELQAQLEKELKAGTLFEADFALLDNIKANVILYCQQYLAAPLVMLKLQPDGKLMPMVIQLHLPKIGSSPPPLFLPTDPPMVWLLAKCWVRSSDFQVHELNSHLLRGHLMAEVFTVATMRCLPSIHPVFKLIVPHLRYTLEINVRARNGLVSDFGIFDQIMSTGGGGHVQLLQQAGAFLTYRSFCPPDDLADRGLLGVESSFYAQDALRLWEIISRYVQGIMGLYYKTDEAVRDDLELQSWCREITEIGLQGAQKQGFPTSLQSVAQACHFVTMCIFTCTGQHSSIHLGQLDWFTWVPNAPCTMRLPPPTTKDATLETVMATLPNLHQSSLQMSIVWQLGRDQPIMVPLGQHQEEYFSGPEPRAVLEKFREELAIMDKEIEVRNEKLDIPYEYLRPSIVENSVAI
- protocol-notes: 15-LO inhibitory activity (15-LO from rabbit reticulocytes, linoleic acid)
- Type: biochemical
- test-settings: 256 μM linoleic acid, 4° C., read-out: Lipoxygenase inhibitory action 50% inhibitory concentration (IC50), 15-LO
pIC50: −log10 of the molar value.
recorded-endpoint: pIC50

[[record]]
cpd_smiles = "Cc1c(C)c2c(c(CN)c1N)CC(C)(C)O2"
readout_value = 5.43


----------
- target: 5-lipoxygenase (5-LO) (Homo sapiens, UniProt P09917)
- Construct: human peripheral blood mononuclear cells; endogenous in cells
- Sequence (P09917 1-674): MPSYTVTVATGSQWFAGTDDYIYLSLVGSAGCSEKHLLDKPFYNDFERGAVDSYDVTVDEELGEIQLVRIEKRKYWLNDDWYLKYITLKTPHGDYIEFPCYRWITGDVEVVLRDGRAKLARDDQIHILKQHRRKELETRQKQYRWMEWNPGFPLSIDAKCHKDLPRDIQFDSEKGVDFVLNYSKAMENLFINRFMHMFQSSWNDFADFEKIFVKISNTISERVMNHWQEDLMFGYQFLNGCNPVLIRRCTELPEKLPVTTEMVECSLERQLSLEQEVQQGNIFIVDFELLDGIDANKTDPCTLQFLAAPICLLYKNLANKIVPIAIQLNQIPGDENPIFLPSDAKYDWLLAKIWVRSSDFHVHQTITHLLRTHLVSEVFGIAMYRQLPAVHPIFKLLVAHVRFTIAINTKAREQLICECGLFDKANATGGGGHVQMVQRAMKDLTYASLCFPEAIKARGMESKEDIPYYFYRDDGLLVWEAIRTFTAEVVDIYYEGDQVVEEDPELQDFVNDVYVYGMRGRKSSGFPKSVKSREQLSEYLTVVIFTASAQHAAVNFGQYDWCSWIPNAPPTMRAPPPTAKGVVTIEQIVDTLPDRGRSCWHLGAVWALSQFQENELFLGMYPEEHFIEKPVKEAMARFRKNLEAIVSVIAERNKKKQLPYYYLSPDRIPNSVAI
- protocol-notes: 5-LO inhibitory activity (leucotriene B4 formation in human peripheral blood mononuclear cells, A23187)
- test-settings: 30 μM A23187, leucotriene B4, read-out: Lipoxygenase inhibitory action 50% inhibitory concentration (IC50), 5-LO
- Method: 5-LO inhibitory activity was measured using a variation of the method of Carter et al. (Carter G. W. et al., J. Pharmacol. Exp. Ther., 256, 929 to 937, 1991). […] The resulting leucotriene B4 that formed was quantified by enzyme immunoassay, and the 50% formation inhibitory concentration (μM) of the test compound with respect to 5-LO was calculated from that value.
# IC50 values compiled below
recorded-endpoint: IC50

[[record]]
compound = "Cc1c(C)c2c(c(CN)c1N)CC(C)(C)O2"
recorded_endpoint = "IC50"
readout_value = "> 10 µM"

[[record]]
compound = "Cc1c(C)c2c(c(C)c1N)CC(C)(CN1CCC(c3ccccc3)CC1)O2 (centres unmarked) [Control Drug 2, reference compound]"
recorded_endpoint = "IC50"
readout_value = "> 10 µM"

